Assay: in vitro
Details: human, hela cells, % viability
Could you please report measured viability at 28.5 h, 10 µM for the items listed next?
Answer with a number only, understood to be in %.

Lab book: viability at 28.5 h, 10 µM of COc1ccc(S(=O)(=O)NCC(=O)O)cc1OC noted as 96.2

Entry COc1cc(/C=N/Nc2nnn[nH]2)cc2c1OCO2 , viability at 28.5 h, 10 µM reported as 100

What the record says about COc1ccc(S(=O)(=O)N(CC(=O)N2CCc3ccccc3C2)C2CCCCC2)cc1Cl : viability at 28.5 h, 10 µM is 97.9

Reported viability at 28.5 h, 10 µM ( Cc1ccnn1CCC(=O)NC1(c2ccccc2F)CCCC1 ) = 81.7

viability at 28.5 h, 10 µM reading for O=C(OCCc1ccncc1)N1CCCC(F)(F)C1 : 92.2

====

Test: in vitro
Details: human, hela cells, % viability
Quantity Measured: viability at 28.5 h, 10 µM (%)
Quick note: give the figure in %, leave out the unit.

Consider CCOC(=O)c1cn(CCSCC)cc(Oc2ccccc2)c1=O . Its measured viability at 28.5 h, 10 µM is 115

# viability at 28.5 h, 10 µM of CCCSc1scc2c1-c1n[nH]cc1CC2 = 99.3

Data point: Nc1ncc(-c2ccc(N3CCOCC3)cc2)nc1N1CCN(CCO)CC1 ; viability at 28.5 h, 10 µM = 95.8

Input CCC(C)(C)c1ccc(S(=O)(=O)NCCCN2CCCC2)cc1 . Output viability at 28.5 h, 10 µM: 95.8

Summary for this compound, COc1ccccc1N1CCN(C(=O)c2snnc2C)CC1 : viability at 28.5 h, 10 µM is 92.8

Quick note, viability at 28.5 h, 10 µM for O=S1(=O)N=C(c2cccs2)C=C(C(F)(F)F)N1 landed at 106

Value of measured viability at 28.5 h, 10 µM for the entry O=C(CSc1ncnc2c1oc1ccccc12)NC1CCCCC1 : 95.4

response.value for O=C1NC(=Nc2ccccn2)SC1Cc1ccc(Br)cc1 (stereo not shown) (field: viability at 28.5 h, 10 µM) = 82.3

// sample C=CCN(C)C(=O)[C@H]1C[C@@H](O)[C@H](O)[C@@H]2N=C(Nc3ccc(OC)cc3)S[C@@H]21 , its viability at 28.5 h, 10 µM was 97.1

Given item Cc1ccc(-n2ncc3c(=O)n(CC(=O)Nc4cccc(C)c4)cnc32)cc1 , the value recorded as its viability at 28.5 h, 10 µM is 103

====

Assay: in vitro
Settings: human, hela cells, % viability
Quantity Measured: viability at 28.5 h, 10 µM (%)
Numeric answer only, unit % assumed.

For this molecule ( CC(C)c1ccc(/C=C/C(=O)N[C@H]2CC[C@H](O)CC2)cc1 [CBK149644] ), measured viability at 28.5 h, 10 µM is 106

Form: molecule = O=C(C1CN(C(=O)Cn2ncc(=O)c3ccccc32)c2ccccc2O1)N1CCCCC1 (centres unmarked) [CBK297115] ; viability at 28.5 h, 10 µM = 93.5

Lab note: COc1ccc([C@@]23CC[C@@H](NC(=O)Nc4cccc(Cl)c4)C[C@@H]2CN(C)C3)cc1OC [CBK081375T] gave viability at 28.5 h, 10 µM of 96.8

get_value(item= COc1ccc([C@H]2CN(C(=O)c3ccccc3)[C@@H]3CCN(Cc4ccccc4)C[C@H]23)cc1 [CBK285592] , readout=viability at 28.5 h, 10 µM) returns 98.5

The molecule identified as CC(C)(C)OC(=O)NCc1ccc(-c2nnc(CC(=O)O)o2)cc1 [CBK169899D] registered its viability at 28.5 h, 10 µM at 96.5

The molecule identified as CCC1CCc2c(sc(NC(=O)c3cnccn3)c2C(N)=O)C1 (centres unmarked) [CBK262649] registered its viability at 28.5 h, 10 µM at 105

Sure, the documented viability at 28.5 h, 10 µM for CN1CCN(c2ccc(NC(=O)c3cc([N+](=O)[O-])ccc3N3CCOCC3)cc2)CC1 [CBK269425] is 95.6

Data point: Cc1ccc(-c2nn3c(C)nnc3s2)cc1NC(=O)c1ccc([N+](=O)[O-])o1 [CBK267247] ; viability at 28.5 h, 10 µM = 95.2

Form: molecule = Cc1ccc(Cl)cc1NC(=O)CC1NCCNC1=O (centres unmarked) [CBK267246] ; viability at 28.5 h, 10 µM = 97

// sample C=CCOC(=O)C1=C(C)N=C2SCCC(=O)N2C1c1ccc(SC)cc1 (centres unmarked) [CBK073405] , its viability at 28.5 h, 10 µM was 93.5

So, CC(C)CCNC(=O)N1CCN(c2ccccc2)CC1 [CBK155203] ? Its viability at 28.5 h, 10 µM was 101

In plain terms, O=C(CC(C(=O)O)c1c[nH]c2ccccc12)c1ccc(Cl)cc1 (centres unmarked) [CBK286620] has a documented viability at 28.5 h, 10 µM of 86.7

Record summary for NCCc1nc(-c2ccccc2)c2cnccn12 [CBK035705] : reported viability at 28.5 h, 10 µM = 101

Sure, the documented viability at 28.5 h, 10 µM for O=C(Nc1ccccc1)Nc1ccccc1C(=O)NCc1ccccc1 [CBK265338] is 90.2

Entry COC(=O)N1CC2(CCCCC2NCCC(F)(F)F)c2ccccc21 (centres unmarked) [CBK083539T] , viability at 28.5 h, 10 µM reported as 90

Value of viability at 28.5 h, 10 µM reported for the molecule CCc1c(C)nc2nnc(NC(=O)C(F)(F)F)n2c1O [CBK020762] is 102

Looking up N#Cc1cccnc1N1CCC(NC(=O)c2cccnc2)CC1 [CBK304283] , I see its viability at 28.5 h, 10 µM listed as 103

The molecule O=[N+]([O-])c1ccc(-c2ccc(/N=C/c3ccco3)cc2)cc1 [CBK261639] showed viability at 28.5 h, 10 µM equal to 92.2

So, CC(C)CC(=O)Nc1ccc2nc(SCC(=O)O)sc2c1 [CBK299801] ? Its viability at 28.5 h, 10 µM was 96.4

viability at 28.5 h, 10 µM for O=C(NCC1(c2ccccc2)CCCC1)c1ccc(=O)n(CC(=O)N2CCCCC2)c1 [CBK286082] is 93.5

Notebook: Cn1ccc(C(=O)N2CCOC(c3nc(C(C)(C)C)n[nH]3)C2)cc1=O (centres unmarked) [CBK305201] , viability at 28.5 h, 10 µM read as 106

viability at 28.5 h, 10 µM reported for this molecule O=C(O)c1cccc2c1C(=O)N(Cc1ccc(F)cc1)C2 [CBK291183] : 87.3

Quick note, viability at 28.5 h, 10 µM for Nc1nc(N)nc(Cn2c(-c3nonc3N)nc3ccccc32)n1 [CBK263072] landed at 105

Record Cc1ccc(NC(=S)N(CCN(C)C)Cc2cc3ccc(C)cc3[nH]c2=O)c(C)c1 [CBK135134] , field viability at 28.5 h, 10 µM: 92.4

Lab note: measured viability at 28.5 h, 10 µM of Cc1ccc(C2C=C(c3ccccc3)Nc3nc(N4C(=O)CCC4=O)nn32)cc1 (centres unmarked) [CBK266197] was 98.6

Noted for Cc1ccc(CCC(=O)N(CCC#N)C2CCOCC2)c(C)c1 [CBK305809] : its viability at 28.5 h, 10 µM reads 87.4

In plain terms, CCc1cc(CNS(=O)(=O)c2cc(C)ccc2F)on1 [CBK283064] has a documented viability at 28.5 h, 10 µM of 108

Record CN1CCN(c2nc(-c3cccc(F)c3)cnc2N)CC1 [CBK063433] . Reported viability at 28.5 h, 10 µM: 100

So for Cc1ccc(C(CNCc2cn(C)nc2-c2cccnc2)N(C)C)cc1 (centres unmarked) [CBK305343] , the logged viability at 28.5 h, 10 µM turned out to be 109

Record CCOc1ccc(Cl)cc1CNc1nnnn1CC [CBK288128] . Reported viability at 28.5 h, 10 µM: 92.9

Form: molecule = CC(C)CCNC(=O)CC(=O)Nc1ccc(C(=O)O)cc1 [CBK286721] ; viability at 28.5 h, 10 µM = 85.5

The reported viability at 28.5 h, 10 µM of the molecule O=C(CC1CCCCC1)Nc1snnc1-c1ccc(Cl)cc1 [CBK153245] was 114

Reported viability at 28.5 h, 10 µM ( OC1CCC(Nc2cncc(-c3ccc(F)cc3F)n2)CC1 (centres unmarked) [CBK065835] ) = 107

Input O=C(Cc1cccs1)N1CCC(c2cc3ncccc3[nH]2)CC1 [CBK283393] . Output viability at 28.5 h, 10 µM: 86.5

Quick note, viability at 28.5 h, 10 µM for Cc1cccc(-c2ncc(C(=O)Nc3nccs3)cc2-c2ccco2)c1 [CBK037427] landed at 86.3

Lab note: measured viability at 28.5 h, 10 µM of CN1CCN(CCOC(=O)N2CCCC(F)(F)C2)CC1 [CBK200208] was 105

Recorded result, CC(=O)NCCn1cc2c(n1)[C@H]1CN(C(=O)CC(C)C)C[C@H]1CC2 [CBK284572] , viability at 28.5 h, 10 µM: 99.1

Reported viability at 28.5 h, 10 µM of CNC(=O)c1sc2ccccc2c1C1CN(Cc2cn(C)c3ccc(F)cc23)CCO1 (centres unmarked) [CBK285868] : 87.4
